- System: C2C12 myoblast
- method-description: C2C12 myoblast differentiation (fusion index, number of nuclei per myotube)
- Format: cell-based, mouse
- settings: C2C12 myoblasts, 6-day differentiation in the presence of the drug; read-out: EC50 for number of nuclei per myotube increase
assay-metric: pEC50
Reminder that pEC50 is minus the log10 of a molar concentration.

Sample CC(C)(O)CC[C@@H](O)[C@](C)(O)[C@H]1CC[C@@]2(O)C3=CC(=O)[C@@H]4C[C@@H](O)[C@@H](O)C[C@]4(C)[C@H]3CC[C@]12C [BIO101] — what was its pEC50?
6.26

====

- Test system: C2C12 myoblast
- method-description: C2C12 myoblast differentiation (fusion index, number of nuclei per myotube)
- Format: cell-based, mouse
- settings: Mus musculus, C2C12, 144 h, C2C12 myoblasts, 6-day differentiation in the presence of the drug; read-out: EC50 for number of nuclei per myotube increase
assay-metric: EC50 (nM)
Kindly provide the numeric value in nM only, without the unit symbol.

Sample CC(C)(O)CC[C@@H](O)[C@](C)(O)[C@H]1CC[C@@]2(O)C3=CC(=O)[C@@H]4C[C@@H](O)[C@@H](O)C[C@]4(C)[C@H]3CC[C@]12C — what was its EC50?
556
